Test: Pharmacokinetics in rats after oral administration
Assay type: in vivo, SD rats
Conditions: male, SD, rat, 20 mg/kg, plasma
ASSAY_READOUT: AUC(0-inf) (ng·h/mL)

Here are 2 compounds together with their reported answers.
C=CC(=O)Nc1cc(Nc2nccc(-n3ccc4nc(Cl)ccc43)n2)c(OC)cc1N(C)CCN(C)C: 1790
C=CC(=O)Nc1cc(Nc2nccc(-n3ccc4nc(OC)ccc43)n2)c(OC)cc1N(C)CCN(C)C: 1450

1. C=CC(=O)Nc1cc(Nc2nccc(-n3c(=O)n(C(C)C)c4cc(F)ccc43)n2)c(OC)cc1N(C)CCN(C)C
2. C=CC(=O)Nc1cc(Nc2nccc(-n3c(=O)n(CC=C(C)C)c4ccccc43)n2)c(OC)cc1N(C)CCN(C)C
3. C=CC(=O)Nc1cc(Nc2nccc(-n3c(=O)n(C)c4cc(F)ccc43)n2)c(OC)cc1N(C)CCN(C)C
IN: # sort list by recorded AUC(0-inf), greatest to least Give the labels in the order specified.
OUT: 1, 2, 3

###

ASSAY_READOUT: melting point

Here are 5 molecules together with their reported answers.
C=CC(=O)Nc1cc(Nc2nccc(-n3ccc4cc(C(N)=O)ccc43)n2)c(OC)cc1N(C)CCN(C)C: 121.3 to 125.1 °C
C=CC(=O)Nc1cc(Nc2nccc(-n3ccc4cc(OCCO)ccc43)n2)c(OC)cc1N(C)CCN(C)C: 65 to 67 °C
C=CC(=O)Nc1cc(Nc2ncc(OC)c(-n3c(=O)n(C(C)C)c4ccccc43)n2)c(OC)cc1N(C)CCN(C)C: 92 to 95 °C
C=CC(=O)Nc1cc(Nc2nccc(-n3ccc4cc(Cl)ccc43)n2)c(OC)cc1N(C)CCN(C)C: 150 to 153 °C
C=CC(=O)Nc1cc(Nc2ncc(C(F)(F)F)c(-n3ccc4ccccc43)n2)c(OC)cc1N(C)CCN(C)C: 161 to 162 °C

IN: GET /values?readout=melting point&item= C=CC(=O)Nc1cc(Nc2nccc(-n3ccc4cc(F)ccc43)n2)c(OC)cc1N(C)CCN(C)C
OUT: 168 to 170 °C

IN: GET /values?readout=melting point&item= C=CC(=O)Nc1cc(Nc2ncc(OC)c(-n3ccc4ccccc43)n2)c(OC)cc1N(C)CCN(C)C
OUT: 143.3 to 147.8 °C

IN: GET /values?readout=melting point&item= C=CC(=O)Nc1cc(Nc2nccc(-n3c(=O)n(C)c4cc(Cl)ccc43)n2)c(OC)cc1N(C)CCN(C)C
OUT: 70 to 71 °C

IN: GET /values?readout=melting point&item= C=CC(=O)Nc1cc(Nc2nccc(-n3c(=O)n(C(C)C)c4cc(O)ccc43)n2)c(OC)cc1N(C)CCN(C)C
OUT: 115 to 117 °C

IN: GET /values?readout=melting point&item= C=CC(=O)Nc1cc(Nc2nccc(-n3ccc4cc(OC)ccc43)n2)c(OC)cc1N(C)CCN(C)C
OUT: 117 to 118 °C

IN: GET /values?readout=melting point&item= C=CC(=O)Nc1cc(Nc2nccc(-n3c(=O)n(C)c4ccccc43)n2)ccc1N(C)CCN(C)C
OUT: 190 to 193 °C

IN: GET /values?readout=melting point&item= C=CC(=O)Nc1cc(Nc2nccc(-n3c(=O)n(C(C)C)c4ccccc43)n2)ccc1N(C)CCN(C)C
OUT: 85 to 90 °C

IN: GET /values?readout=melting point&item= C=CC(=O)Nc1cc(Nc2nccc(-n3ccc4cc(CO)ccc43)n2)c(OC)cc1N(C)CCN(C)C
OUT: 67 to 68 °C

IN: GET /values?readout=melting point&item= C=CC(=O)Nc1cc(Nc2ncc(OC)c(-n3c(=O)n(C)c4ccccc43)n2)c(OC)cc1N(C)CCN(C)C
OUT: 168 to 172 °C

IN: GET /values?readout=melting point&item= C=CC(=O)Nc1cc(Nc2nccc(-n3c(=O)n(C(C)C)c4cc(OC)ccc43)n2)c(OC)cc1N(C)CCN(C)C
OUT: 95 to 98 °C

IN: GET /values?readout=melting point&item= C=CC(=O)Nc1cc(Nc2nccc(-n3ccc4nc(Cl)ccc43)n2)c(OC)cc1N(C)CCN(C)C
OUT: 127 to 129 °C

IN: GET /values?readout=melting point&item= C=CC(=O)Nc1cc(Nc2nccc(-n3c(=O)n(C4CC4)c4cc(OC)ccc43)n2)c(OC)cc1N(C)CCN(C)C
OUT: 144 to 146 °C

IN: GET /values?readout=melting point&item= C=CC(=O)Nc1cc(Nc2nccc(-n3ccc4ccccc43)n2)c(OC)cc1N1CC(N(C)C)C1
OUT: 81 to 83 °C

IN: GET /values?readout=melting point&item= C=CC(=O)Nc1cc(Nc2nccc(-n3ccc4cc(OCCOC)ccc43)n2)c(OC)cc1N(C)CCN(C)C
OUT: 59 to 61 °C

IN: GET /values?readout=melting point&item= C=CC(=O)Nc1cc(Nc2nccc(-n3ccc4cc(C#N)ccc43)n2)c(OC)cc1N(C)CCN(C)C
OUT: 127 to 128 °C

IN: GET /values?readout=melting point&item= C=CC(=O)Nc1cc(Nc2nccc(-n3c(=O)n(CC4CC4)c4ccccc43)n2)c(OC)cc1N(C)CCN(C)C
OUT: 68 to 72 °C

###

Assay: Pharmacokinetic experiments of tumor model (plasma and tumor tissue, H1975 xenograft mice)
Type: in vivo, Balb/C nude mice
Settings: Balb/C nude, mouse, oral 30 mg/kg, plasma
ASSAY_READOUT: AUC(0-inf) (ng·h/mL)
Report the figure in ng·h/mL without appending any unit label.

IN: GET /values?readout=AUC(0-inf)&item= C=CC(=O)Nc1cc(Nc2nccc(-n3c(=O)n(C(C)C)c4cc(F)ccc43)n2)c(OC)cc1N(C)CCN(C)C
OUT: 5130

###

Assay: Pharmacokinetic experiments of tumor model (plasma and tumor tissue, H1975 xenograft mice)
Format: in vivo, Balb/C nude mice
Details: Balb/C nude, mouse, oral 30 mg/kg, tumor tissue, read-out: AUC0-24
ASSAY_READOUT: AUC(0-t) (ng·h/mL)
Report the figure in ng·h/mL without appending any unit label.

IN: GET /values?readout=AUC(0-t)&item= C=CC(=O)Nc1cc(Nc2nccc(-n3c(=O)n(C(C)C)c4cc(F)ccc43)n2)c(OC)cc1N(C)CCN(C)C [Compound 91]
OUT: 6430

###

Molecular target: EGFR T790M/L858R (Homo sapiens, UniProt P00533, L858R/T790M)
Sequence (P00533 25-1210 T790M/L858R): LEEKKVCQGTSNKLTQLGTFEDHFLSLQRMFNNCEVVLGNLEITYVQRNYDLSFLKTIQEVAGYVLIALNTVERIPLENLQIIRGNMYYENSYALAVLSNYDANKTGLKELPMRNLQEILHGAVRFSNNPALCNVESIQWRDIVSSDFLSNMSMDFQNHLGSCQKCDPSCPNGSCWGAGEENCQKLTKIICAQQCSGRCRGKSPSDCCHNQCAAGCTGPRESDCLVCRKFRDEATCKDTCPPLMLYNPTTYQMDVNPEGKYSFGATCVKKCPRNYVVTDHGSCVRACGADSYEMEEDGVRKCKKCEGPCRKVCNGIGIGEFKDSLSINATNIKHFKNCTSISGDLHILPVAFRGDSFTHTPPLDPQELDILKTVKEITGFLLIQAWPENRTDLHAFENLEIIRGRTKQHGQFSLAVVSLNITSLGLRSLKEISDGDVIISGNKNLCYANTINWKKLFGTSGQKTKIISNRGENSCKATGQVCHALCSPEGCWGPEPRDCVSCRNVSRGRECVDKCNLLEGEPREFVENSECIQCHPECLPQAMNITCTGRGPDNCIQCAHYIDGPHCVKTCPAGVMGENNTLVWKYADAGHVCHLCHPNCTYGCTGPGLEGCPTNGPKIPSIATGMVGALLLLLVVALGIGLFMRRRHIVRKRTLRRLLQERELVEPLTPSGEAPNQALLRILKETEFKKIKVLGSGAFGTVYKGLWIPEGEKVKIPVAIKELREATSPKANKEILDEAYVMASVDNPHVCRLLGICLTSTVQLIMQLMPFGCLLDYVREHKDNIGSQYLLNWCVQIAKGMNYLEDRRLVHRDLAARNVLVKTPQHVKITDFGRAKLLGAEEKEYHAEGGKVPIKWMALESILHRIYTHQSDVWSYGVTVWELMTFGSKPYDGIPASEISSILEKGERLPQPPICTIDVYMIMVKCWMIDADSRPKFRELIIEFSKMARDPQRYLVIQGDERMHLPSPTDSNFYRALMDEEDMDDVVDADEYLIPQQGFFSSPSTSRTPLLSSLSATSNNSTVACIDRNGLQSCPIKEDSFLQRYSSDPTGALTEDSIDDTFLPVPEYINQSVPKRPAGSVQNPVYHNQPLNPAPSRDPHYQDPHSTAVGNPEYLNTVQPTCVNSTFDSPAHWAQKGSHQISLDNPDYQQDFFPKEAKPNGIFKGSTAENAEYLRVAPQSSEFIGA
Experiment: Mutant EGFR T790M/L858R activity inhibition assay (Caliper mobility shift)
Settings: read-out: enzyme activity inhibition (IC50) EGFR T790M/L858R
pIC50: −log10 of the molar value.
ASSAY_READOUT: pIC50

C=CC(=O)Nc1cc(Nc2nccc(-n3c(=O)n(C)c4cc(OC)ccc43)n2)c(OC)cc1N(C)CCN(C)C: > 9.00
C=CC(=O)Nc1cc(Nc2nccc(-n3c(=O)n(C4CC4)c4cc(Cl)ccc43)n2)c(OC)cc1N(C)CCN(C)C: 8.00 to 9.00
C=CC(=O)Nc1cc(Nc2nccc(-n3ccc4nc(OC)ccc43)n2)c(OC)cc1N(C)CCN(C)C: > 9.00
C=CC(=O)Nc1cc(Nc2ncc(N(C)C)c(-n3ccc4ccccc43)n2)c(OC)cc1N(C)CCN(C)C: 8.00 to 9.00
C/C=C/C(=O)Nc1cc(Nc2nccc(-n3ccc4ccccc43)n2)c(OC)cc1N(C)CCN(C)C: 7.30 to 8.00
C=CC(=O)Nc1cc(Nc2nccc(-n3c(=O)n(C4CC4)c4cc(OC)ccc43)n2)c(OC)cc1N(C)CCN(C)C: > 9.00

IN: GET /values?readout=pIC50&item= C=CC(=O)Nc1cc(Nc2nccc(-n3c(=O)n(C(C)C)c4cc(OC)ccc43)n2)c(OC)cc1N(C)CCN(C)C
OUT: 8.00 to 9.00

IN: GET /values?readout=pIC50&item= C=CC(=O)Nc1cc(Nc2nccc(-n3c(=O)n(C)c4ccccc43)n2)ccc1N(C)CCN(C)C
OUT: > 9.00

IN: GET /values?readout=pIC50&item= C=CC(=O)Nc1cc(Nc2nccc(-n3ccc4cc(OCCOC)ccc43)n2)c(OC)cc1N(C)CCN(C)C
OUT: > 9.00

###

Reported values of pIC50 for individual entries
Molecular target: EGFR T790M/L858R (Homo sapiens, UniProt P00533, L858R/T790M)
Test: Mutant EGFR T790M/L858R activity inhibition assay (Caliper mobility shift)
Details: read-out: enzyme activity inhibition (IC50) EGFR T790M/L858R
pIC50: −log10 of the molar value.

Here are 3 compounds together with their reported answers.
C=CC(=O)Nc1cc(Nc2nccc(-n3c(=O)n(C)c4ccccc43)n2)c(C)cc1N(C)CCN(C)C: > 9.00
C=CC(=O)Nc1cc(Nc2nccc(-n3c(=O)n(C(C)C)c4cc(O)ccc43)n2)c(OC)cc1N(C)CCN(C)C: > 9.00
C=CC(=O)Nc1cc(Nc2nccc(-n3ccc4nc(Cl)ccc43)n2)c(OC)cc1N(C)CCN(C)C: > 9.00

In the following, a different compound is considered.
IN: Short answer please: pIC50, EGFR T790M/L858R (Homo sapiens, UniProt P00533, L858R/T790M), entry C=CC(=O)Nc1cc(Nc2nccc(-n3ccc4cc(Cl)ccc43)n2)c(OC)cc1N(C)CCN(C)C
OUT: > 9.00
